system: MCF7 (mammary carcinoma); assay: Tumor growth inhibitory activity (cytotoxicity), SRB method of Skehan et al, MCF7; type: cell-based, human; details: Homo sapiens, MCF7; 72 h drug exposure; SRB; mean of at least three separate experiments; read-out: IC50 MCF7 (breast)
Recorded pIC50 by entry
Friendly reminder that pIC50 comes from taking -log10 of the concentration in mol/L.

{"compound": "CCC(=O)O[C@H]1C(=O)[C@@]2(C)C([C@H](OC(=O)c3cccc(OC)c3)[C@]3(O)C[C@H](OC(=O)[C@H](O)[C@H](C=C(F)F)NC(=O)OC(C)(C)C)C(C)=C1C3(C)C)[C@]1(OC(C)=O)CO[C@@H]1C[C@@H]2O (stereo partly shown)", "measured-target": "MCF7 (mammary carcinoma)", "pIC50": 9.47}
{"compound": "COC(=O)O[C@H]1C(=O)[C@@]2(C)C([C@H](OC(=O)c3cccc(Cl)c3)[C@]3(O)C[C@H](OC(=O)[C@H](O)[C@H](C=C(F)F)NC(=O)OC(C)(C)C)C(C)=C1C3(C)C)[C@]1(OC(C)=O)CO[C@@H]1C[C@@H]2O (stereo partly shown)", "measured-target": "MCF7 (mammary carcinoma)", "pIC50": 10.00}
{"compound": "COC(=O)O[C@H]1C(=O)[C@@]2(C)C([C@H](OC(=O)c3ccccc3)[C@]3(O)C[C@H](OC(=O)[C@H](O)[C@H](C=C(F)F)NC(=O)OC(C)(C)C)C(C)=C1C3(C)C)[C@]1(OC(C)=O)CO[C@@H]1C[C@@H]2O (stereo partly shown)", "measured-target": "MCF7 (mammary carcinoma)", "pIC50": 9.85}
{"compound": "CCC(=O)O[C@H]1C(=O)[C@@]2(C)C([C@H](OC(=O)c3cccc(Cl)c3)[C@]3(O)C[C@H](OC(=O)[C@H](O)[C@H](C=C(F)F)NC(=O)OC(C)(C)C)C(C)=C1C3(C)C)[C@]1(OC(C)=O)CO[C@@H]1C[C@@H]2O (stereo partly shown)", "measured-target": "MCF7 (mammary carcinoma)", "pIC50": 9.89}
{"compound": "CC(=O)O[C@H]1C(=O)[C@@]2(C)C([C@H](OC(=O)c3cccc(F)c3)[C@]3(O)C[C@H](OC(=O)[C@H](O)[C@H](C=C(F)F)NC(=O)OC(C)(C)C)C(C)=C1C3(C)C)[C@]1(OC(C)=O)CO[C@@H]1C[C@@H]2O (stereo partly shown)", "measured-target": "MCF7 (mammary carcinoma)", "pIC50": 9.89}
{"compound": "COC(=O)O[C@H]1C(=O)[C@@]2(C)C([C@H](OC(=O)c3cccc(OC)c3)[C@]3(O)C[C@H](OC(=O)[C@H](O)[C@H](C=C(F)F)NC(=O)OC(C)(C)C)C(C)=C1C3(C)C)[C@]1(OC(C)=O)CO[C@@H]1C[C@@H]2O (stereo partly shown)", "measured-target": "MCF7 (mammary carcinoma)", "pIC50": 10.11}
{"compound": "CCC(=O)O[C@H]1C(=O)[C@@]2(C)C([C@H](OC(=O)c3cccc(N=[N+]=[N-])c3)[C@]3(O)C[C@H](OC(=O)[C@H](O)[C@H](C=C(F)F)NC(=O)OC(C)(C)C)C(C)=C1C3(C)C)[C@]1(OC(C)=O)CO[C@@H]1C[C@@H]2O (stereo partly shown)", "measured-target": "MCF7 (mammary carcinoma)", "pIC50": 9.89}
{"compound": "CC(=O)O[C@H]1C(=O)[C@@]2(C)C([C@H](OC(=O)c3cccc(N=[N+]=[N-])c3)[C@]3(O)C[C@H](OC(=O)[C@H](O)[C@H](C=C(F)F)NC(=O)OC(C)(C)C)C(C)=C1C3(C)C)[C@]1(OC(C)=O)CO[C@@H]1C[C@@H]2O (stereo partly shown)", "measured-target": "MCF7 (mammary carcinoma)", "pIC50": 10.04}
{"compound": "CCC(=O)O[C@H]1C(=O)[C@@]2(C)C([C@H](OC(=O)c3ccccc3)[C@]3(O)C[C@H](OC(=O)[C@H](O)[C@H](C=C(F)F)NC(=O)OC(C)(C)C)C(C)=C1C3(C)C)[C@]1(OC(C)=O)CO[C@@H]1C[C@@H]2O (stereo partly shown)", "measured-target": "MCF7 (mammary carcinoma)", "pIC50": 9.92}
{"compound": "CCC(=O)O[C@H]1C(=O)[C@@]2(C)C([C@H](OC(=O)c3cccc(F)c3)[C@]3(O)C[C@H](OC(=O)[C@H](O)[C@H](C=C(F)F)NC(=O)OC(C)(C)C)C(C)=C1C3(C)C)[C@]1(OC(C)=O)CO[C@@H]1C[C@@H]2O (stereo partly shown)", "measured-target": "MCF7 (mammary carcinoma)", "pIC50": 9.64}

Name the recorded pIC50 of the item CC(=O)O[C@H]1C(=O)[C@@]2(C)C([C@H](OC(=O)c3ccccc3)[C@]3(O)C[C@H](OC(=O)[C@H](O)[C@H](C=C(F)F)NC(=O)OC(C)(C)C)C(C)=C1C3(C)C)[C@]1(OC(C)=O)CO[C@@H]1C[C@@H]2O (stereo partly shown) in your answer. 10.00

Please report pIC50 for the following compound: COC(=O)O[C@H]1C(=O)[C@@]2(C)C([C@H](OC(=O)c3cccc(N=[N+]=[N-])c3)[C@]3(O)C[C@H](OC(=O)[C@H](O)[C@H](C=C(F)F)NC(=O)OC(C)(C)C)C(C)=C1C3(C)C)[C@]1(OC(C)=O)CO[C@@H]1C[C@@H]2O (stereo partly shown) 10.12

Name the recorded pIC50 of the item CC(=O)O[C@H]1C(=O)[C@@]2(C)[C@H]([C@H](OC(=O)c3ccccc3)[C@]3(O)C[C@H](OC(=O)[C@H](O)[C@@H](NC(=O)c4ccccc4)c4ccccc4)C(C)=C1C3(C)C)[C@]1(OC(C)=O)CO[C@@H]1C[C@@H]2O [Paclitaxel, paclitaxel, reference compound] in your answer. 8.92

Fill in reported pIC50 for this entry: COC(=O)O[C@H]1C(=O)[C@@]2(C)C([C@H](OC(=O)c3cccc(F)c3)[C@]3(O)C[C@H](OC(=O)[C@H](O)[C@H](C=C(F)F)NC(=O)OC(C)(C)C)C(C)=C1C3(C)C)[C@]1(OC(C)=O)CO[C@@H]1C[C@@H]2O (stereo partly shown) 9.92

State its pIC50 for this compound: COc1cccc(C(=O)O[C@H]2C3[C@](C)(C(=O)[C@H](OC(C)=O)C4=C(C)[C@@H](OC(=O)[C@H](O)[C@H](C=C(F)F)NC(=O)OC(C)(C)C)C[C@]2(O)C4(C)C)[C@@H](O)C[C@H]2OC[C@@]32OC(C)=O)c1 (stereo partly shown) 9.60

Indicate its recorded pIC50; the compound in question is CC(=O)O[C@H]1C(=O)[C@@]2(C)C([C@H](OC(=O)c3cccc(Cl)c3)[C@]3(O)C[C@H](OC(=O)[C@H](O)[C@H](C=C(F)F)NC(=O)OC(C)(C)C)C(C)=C1C3(C)C)[C@]1(OC(C)=O)CO[C@@H]1C[C@@H]2O (stereo partly shown) 9.89

The origin of these recorded values is patent US7981926B2.
